- experimental target: S100A1
- assay text: ITC; 298 K

{"binder": "RKLQRELEDATETADAMNREVSSLKNKLRRGDLPFVVPRRMARK [NMIIA (1894-1937) peptide]", "Kd [nM]": 9}
